# experimental system: Taq DNA polymerase (Thermus aquaticus)
# Sequence (P19821 whole entry): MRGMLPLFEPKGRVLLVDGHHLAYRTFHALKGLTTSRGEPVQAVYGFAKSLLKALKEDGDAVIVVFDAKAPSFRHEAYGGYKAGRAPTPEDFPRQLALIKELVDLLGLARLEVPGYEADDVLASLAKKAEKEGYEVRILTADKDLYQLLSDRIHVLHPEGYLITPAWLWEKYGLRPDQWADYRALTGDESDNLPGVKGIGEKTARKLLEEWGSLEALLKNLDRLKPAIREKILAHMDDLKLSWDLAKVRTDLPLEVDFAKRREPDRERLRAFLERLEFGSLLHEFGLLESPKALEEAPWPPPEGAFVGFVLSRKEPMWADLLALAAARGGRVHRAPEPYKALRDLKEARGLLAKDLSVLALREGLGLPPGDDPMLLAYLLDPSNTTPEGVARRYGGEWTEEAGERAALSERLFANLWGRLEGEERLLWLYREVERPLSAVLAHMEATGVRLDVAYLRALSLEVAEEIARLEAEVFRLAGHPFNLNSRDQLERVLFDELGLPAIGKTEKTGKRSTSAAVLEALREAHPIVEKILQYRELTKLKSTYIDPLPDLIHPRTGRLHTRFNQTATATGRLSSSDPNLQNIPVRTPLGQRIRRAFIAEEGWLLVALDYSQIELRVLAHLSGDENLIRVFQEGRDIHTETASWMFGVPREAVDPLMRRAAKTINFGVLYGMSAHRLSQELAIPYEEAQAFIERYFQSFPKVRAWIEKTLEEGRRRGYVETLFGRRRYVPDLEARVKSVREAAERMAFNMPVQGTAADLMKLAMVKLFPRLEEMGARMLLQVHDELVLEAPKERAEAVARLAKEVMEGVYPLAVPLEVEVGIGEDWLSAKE
readout: IC50 (µM)
Field: numeric (µM). Do not append units.

Sample Nc1ccn([C@H]2CC[C@@H](COP(=O)(O)OP(=O)(O)OP(=O)(O)O)O2)c(=O)n1 ; IC50 observed: 300

###

# experimental system: Taq DNA polymerase (Thermus aquaticus)
# Construct: gene polA
# assay explanation: TaqMan qPCR kinetics (double-reciprocal plot); IC50 also by TaqMan qPCR and EvaGreen primer extension assay
# Type: biochemical
readout: pKi
The quantity pKi is defined as the negative base-10 logarithm of the molar concentration.

Value (pKi, Taq DNA polymerase (Thermus aquaticus)) for record Cc1cn([C@@H]2O[C@@]3(CO)CO[C@@H]2[C@@H]3O)c(=O)[nH]c1=O = 5.01

All figures here come from paper PMC4731470.
